Attribution: patent US20250304690A1

# testSystem: hCD3 (human CD3 antigen) (human, UniProt P07766 23-126)
# Sequence (P07766 23-126): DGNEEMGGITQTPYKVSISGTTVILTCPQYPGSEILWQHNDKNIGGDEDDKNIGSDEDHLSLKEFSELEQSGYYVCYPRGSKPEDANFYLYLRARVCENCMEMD
# experimentalProtocol: ELISA, plate-coated hCD3
EC50 values, listed per item
endpointLabel: EC50 (pM)

>  <binder>
CD3 Ab03 (antibody, human IgG1, kappa, V domains shown, also called humanized anti-CD3 monoclonal antibody) VH: EVQLVESGGGLVQPGGSLRLSCAASGFTFNTYAMNWVRQAPGKGLEWVARIRSKYNNYATYYADSVKDRFTISRDDSKNSLYLQMNSLKTEDTAVYYCVRHGNFGNSYVSWFAYWGQGTLVTVSA VL: QAVVTQEPSLTVSPGGTVTLTCRSSTGAVTTSNYANWVQQKPGQAPRGLIGGTNKRAPWTPARFSGSLLGGKAALTITGAQTEDEAEYYCALWYSNLWVFGGGTKLTVLR

>  <endpointLabel>
EC50

>  <assayValue>
4.2

$$$$
>  <binder>
CD3 Ab10 (antibody, human IgG1, kappa, V domains shown, also called humanized anti-CD3 monoclonal antibody) VH: EVQLVESGGGLVQPGGSLRLSCAASGFTFNTYAMNWVRQAPGKGLEWVARIRSKYNNYATYYADSVKDRFTISRDDSKNILYLQMNSLKTEDTAVYYCVRHGNFGNSYVSWFAYWGQGTLVTVSA VL: QAVVTQEPSLTVSPGGTVTLTCRSSTGAVTTSNYANWVQEKPGQAPRGLIGGTNKRAPWVPARFSGSLLGDKAALTLSGAQTEDEAEYYCALWYSNLWVFGGGTKLTVLR

>  <endpointLabel>
EC50

>  <assayValue>
2

$$$$
>  <binder>
CD3 Ab13 (antibody, human IgG1, kappa, V domains shown, also called humanized anti-CD3 monoclonal antibody) VH: EVQLVESGGGLVQPGGSLRLSCAASGFTFNTYAMNWVRQAPGKGLEWVARIRSKYNNYATYYADSVKDRFTISRDDSKNILYLQMNSLKTEDTAMYYCVRHGNFGNSYVSWFAYWGQGTLVTVSA VL: QAVVTQEPSLTVSPGGTVTLTCRSSTGAVTTSNYANWVQQKPGQAPRGLIGGTNKRAPWTPARFSGSLLGGKAALTITGAQTEDEAEYYCALWYSNLWVFGGGTKLTVLR

>  <endpointLabel>
EC50

>  <assayValue>
9.9

$$$$
